Just for reference, PubChem BioAssay is where these values come from.

// values below are reported z-score
assay: S. cerevisiae RM11-1a growth modifiers, primary screen, strain RM11-1a, OD600, basal, 24 h (AID 1177); settings: OD600, 24 h, higher = more signal, called active from +8 up or from −8 down;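 also: cultures grown under basal conditions with no added stressor; test concentration not given here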
Active and inactive are the calls of the source.

Below, 5 molecules whose answers are already recorded.
{"compoundSmiles": "C=CCOC(=O)[C@H]1[C@@H]2C(=O)O[C@@H](c3ccccc3)[C@@H](c3ccccc3)N2[C@@H](c2ccc(OCCOC(=O)[C@H]3C[C@H]4C(=O)N5CCC[C@H]5C(=O)N4[C@H]3c3cccc(OCCO)c3)cc2)[C@]12C(=O)Nc1ccccc12", "measuredParameter": "z-score", "testResult": "1.16 (inactive)"}
{"compoundSmiles": "O=C(O)[C@H]1C[C@H]2C(=O)N[C@@H](Cc3ccccc3)C(=O)N2[C@H]1c1ccc(O)cc1", "measuredParameter": "z-score", "testResult": "-0.44 (inactive)"}
{"compoundSmiles": "C=C(CCCC)/C(=C/C[C@H](OC(=O)c1ccncc1)c1ccc(CO)o1)c1cnc2ccccc2c1", "measuredParameter": "z-score", "testResult": "-0.716 (inactive)"}
{"compoundSmiles": "COc1ccc([Si](C)(C)[C@H]2[C@H](CC(=O)N(CCO)Cc3ccccc3)O[C@@]3(C(=O)N(Cc4ccc(N5CCC5=O)cc4)c4ccccc43)[C@@H]2C)cc1", "measuredParameter": "z-score", "testResult": "1.73 (inactive)"}
{"compoundSmiles": "COCCOC(=O)N1C(=O)[C@@]2(c3cc(C#CCNC(N)=O)ccc31)[C@H](C(=O)NC[C@H](O)c1ccccc1)[C@H]1C(=O)O[C@H](c3ccccc3)[C@H](c3ccccc3)N1[C@@H]2c1ccc(O)cc1", "measuredParameter": "z-score", "testResult": "0.436 (inactive)"}

Field z-score (entry COCCOC(=O)N1C(=O)[C@@]2(c3cc(C#CC4(O)CCCCCC4)ccc31)[C@H](c1ccc(O)cc1)N1[C@H](c3ccccc3)[C@H](c3ccccc3)OC(=O)[C@H]1[C@@H]2C(N)=O ) reads -0.95 (inactive)
